- measurementDescription: antibacterial activity against Escherichia coli – OD600, primary screen (AID 1053175)
- statedConditions: Escherichia coli growth, OD600, 23 h; stronger effect = lower value
In all, about 330,000 compounds went through this assay and about 700 (0.21%) were called active. The list comes from a sample in which actives are over-represented; it also holds close analogues and randomly drawn compounds.
Entries and their OD600 absorbance
Reply with the value as a number alone.

The cases that follow already have their OD600 absorbance on record.
>>> print(df.to_string())
                                   compound  resultvalue
0  CC(C)(C)OC(=O)C1=C(CO)CS[C@@H]2[C@H](NC(=O)Cc3ccccc3)C(=O)N12         0.72
1  CCOC(=O)C1C2COc3cc(OC)ccc3C2N2C(=O)CN(Cc3ccc(C)cc3)C(=O)[C@@]12C (stereo partly drawn)        0.699
2               CNc1nc(C)nc(NN=Cc2ccccc2)n1        0.682
3           CCOc1cc(C=NNc2ncnc(Cl)c2N)ccc1O        0.682
4  CCOc1ccc(Br)cc1C(=O)NN=Cc1c[nH]c2ccccc12        0.686
5  CCOC(=O)C1C2COc3ccc(Cl)cc3C2N2C(=O)c3ccc(C)cc3NC(=O)[C@@]12C (stereo partly drawn)        0.705
6  CCN(CC)C(=O)c1[nH]cnc1C(=O)NC(Cc1ccccc1)C(=O)OC(C)(C)C (stereo not drawn)        0.689
7  CC(=NNC(=O)c1ccccc1[N+](=O)[O-])c1c(O)cc(C)oc1=O        0.635

Recorded OD600 absorbance for CC(C=NNC(=O)c1ccc2c(c1)OCO2)c1ccccc1 (stereo not drawn) , please?
0.695

Recorded OD600 absorbance for CCCSc1ccc(C2N[C@@](CC(C)C)(C(=O)OC)C3C(=O)N(CC)C(=O)C23)cc1 (stereo partly drawn) , please?
0.649

Recorded OD600 absorbance for CN1C(=O)C2C(C=Cc3ccccc3)N3C(=O)CN(Cc4ccc(-c5ccccc5)cc4)C(=O)[C@@]3(Cc3ccccc3)C2C1=O (stereo partly drawn) , please?
0.678

Recorded OD600 absorbance for `O=C(CO)NN=Cc1cccc(Cl)c1Cl` , please?
0.595

Recorded OD600 absorbance for `COc1ccc(OC)c(C=Nn2c(-c3n[nH]c4c3CCC4)n[nH]c2=S)c1` , please?
0.697

====

- measurementDescription: antibacterial activity against Escherichia coli – OD600, primary screen (AID 1053175)
- statedConditions: Escherichia coli growth, OD600, 23 h; stronger effect = lower value
About 700 (0.21%) of roughly 330,000 compounds were called active. The full list was thinned out, with actives kept by preference.
Entries and their OD600 absorbance

The cases that follow already have their OD600 absorbance on record.
>>> df
                                   compound       resultvalue
0            CCc1c(Nc2ccccc2C)nc(N)[nH]c1=O  0.675 (inactive)
1  CC(=O)Oc1ccc(C(C)=NN2CCN(Cc3ccc(Cl)cc3)CC2)cc1  0.707 (inactive)
2  O=C(CCNc1n[nH]c(=O)[nH]c1=O)NN=Cc1ccc(Cl)cc1  0.691 (inactive)
3  CC(C)C[C@H](NC(=O)Nc1cccc(C(F)(F)F)c1)C(=O)O  0.689 (inactive)
4     COc1cccc(C=NNC(=O)CSc2cccc3cccnc23)c1  0.635 (inactive)

Recorded OD600 absorbance for `CS(=O)(=O)N(CC(=O)Nc1ccc(Cl)c(Cl)c1)C1CCCCC1` , please?
0.703 (inactive)

Recorded OD600 absorbance for CCCC(CNC(CNC)C(C)O)NCCc1ccc(OC)cc1 (stereo not given) , please?
0.679 (inactive)

Recorded OD600 absorbance for `O=C(O)c1cc2c(o1)CCCC2=NO` , please?
0.711 (inactive)

Recorded OD600 absorbance for `O=C(Nc1ccc(Br)cn1)c1ccc([N+](=O)[O-])o1` , please?
0.518 (inactive)

Recorded OD600 absorbance for `O=C(NN=Cc1cccc2ccccc12)c1cccnc1` , please?
0.676 (inactive)

Recorded OD600 absorbance for COc1ccc(C2C=CCN(S(=O)(=O)C=Cc3ccccc3)C(Cc3ccccc3)C(=O)N2Cc2ccc(F)cc2)cc1 (stereo not given) , please?
0.733 (inactive)

====

- measurementDescription: antibacterial activity against Escherichia coli – OD600, primary screen (AID 1053175)
- statedConditions: Escherichia coli growth, OD600, 23 h
In all, about 330,000 compounds went through this assay and about 700 (0.21%) were called active.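 Rule for the calls: active = OD600 absorbance below the run mean of sample wells minus 3.6 SD, in any replicate (cut at about 0.56 in these data); inactive = the rest.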 The entries come from a sample that favours actives as a whole.
Lab note: assign the record to one of active, inactive

Sample answers from the record:
In [3]: df
Out[3]:
                                   molecule  classlabel
0  O=C(CC(O)(C(F)(F)F)C(F)(F)F)Nc1ccc(Cl)c(Cl)c1      active
1          Cc1[nH]c2ccccc2c1C=NNC(=S)NC(C)C    inactive

Which outcome was entered for the molecule `CCN=c1scc(C)n1N=Cc1cc(Br)c(O)c(OC)c1` in this test?
inactive

Which outcome was entered for the molecule COC(=O)c1ccc(C=NNC(=O)C2CC(=O)N(c3ccc(F)cc3)C2)cc1 (centres undefined) in this test?
inactive

Which outcome was entered for the molecule `O=C(Nc1ccc(C(=O)N2CCOCC2)cc1)Nc1cccc(C(F)(F)F)c1` in this test?
inactive

Which outcome was entered for the molecule `O=C(NN=Cc1ccoc1)c1ccc([N+](=O)[O-])cc1` in this test?
inactive

Which outcome was entered for the molecule `COC(=O)NN=Cc1c[nH]c2ccccc12` in this test?
inactive

Which outcome was entered for the molecule `O=C(C=Cc1ccccc1)NCCSCc1ccccc1Cl` in this test?
inactive

Which outcome was entered for the molecule C[C@@]12C(=O)Nc3cc(Cl)ccc3C(=O)N1C1c3cc(Cl)ccc3OCC1C2c1ccccc1 (some centres undefined) in this test?
inactive
